So I've got a bunch of molecules here, and I need their IC50 values.
System: SGC-7901
procedure.text: Cytotoxicity against human SGC7901 cells after 72 hrs by MTT assay
Format: functional, cell-based
experimental.conditions: Homo sapiens, SGC-7901, 72 h
Numbers only, in µg/mL.

molecule | IC50, µg/mL
c1ccc(C(Nc2ccccn2)c2c[nH]c3ccccc23)cc1 (configuration not stated) | 24.9
O=c1[nH]cc(F)c(=O)[nH]1 [FLUOROURACIL] | 8.7
Clc1ccc(C(Nc2ccccn2)c2c[nH]c3ccccc23)cc1 (configuration not stated) | 19.2
c1ccc(NC(c2ccccn2)c2c[nH]c3ccccc23)nc1 (configuration not stated) | 51.4
Cn1cc(C(Nc2ccccn2)c2ccccc2Cl)c2ccccc21 (configuration not stated) | 27.1

Provide IC50 for all items below, preserving their order.
1. Clc1ccccc1C(Nc1ccccn1)c1c[nH]c2ccccc12 (configuration not stated)
2. Fc1ccc(C(Nc2ccccn2)c2c[nH]c3ccccc23)cc1 (configuration not stated)

A.
14.9
21.5

Consider the following items and state reported IC50 for each.
1. Fc1ccc(C(c2c[nH]c3ccccc23)n2cncn2)cc1 (configuration not stated)
2. Cn1cc(C(Nc2ccccn2)c2ccc(C(F)(F)F)cc2)c2ccccc21 (configuration not stated)
3. Fc1ccccc1C(Nc1ccccn1)c1c[nH]c2ccccc12 (configuration not stated)
4. Cn1cc(C(Nc2ccccn2)c2ccccc2F)c2ccccc21 (configuration not stated)
5. FC(F)(F)c1ccc(C(Nc2ccccn2)c2c[nH]c3ccccc23)cc1 (configuration not stated)
6. Clc1ccccc1C(Nc1nc2ccccc2s1)c1c[nH]c2ccccc12 (configuration not stated)
7. Cn1cc(C(Nc2ccccn2)c2ccc(Cl)cc2)c2ccccc21 (configuration not stated)

A.
8.2
13.8
24.5
86.2
13.5
10.5
25

Below are some molecules; for each one, tell me its IC50.
1. Cn1cc(C(Nc2ccccn2)c2ccc(F)cc2)c2ccccc21 (configuration not stated)
2. Fc1ccccc1C(Nc1nc2ccccc2s1)c1c[nH]c2ccccc12 (configuration not stated)
3. CN(C)Cc1c[nH]c2ccccc12 [GRAMINE]
4. Fc1ccc(C(c2c[nH]c3ccccc23)n2cccn2)cc1 (configuration not stated)
5. Cn1cc(C(Nc2ccccn2)c2ccncc2)c2ccccc21 (configuration not stated)

A.
1: 51.9; 2: 9.4; 3: 77.3; 4: 8.5; 5: 37.9

* * *

Give measured IC50 for each item. Keep answers brief.
Tested on: NCI-H460
procedure.text: Cytotoxicity against human NCI-H460 cells after 72 hrs by MTT assay
Assay type: functional, cell-based
experimental.conditions: Homo sapiens, NCI-H460, 72 h
Numbers only, in mg/L.

Solved entries:
compound | measurement
Fc1ccc(C(c2c[nH]c3ccccc23)n2cccn2)cc1 (stereo not given) | 8.5
Fc1ccc(C(c2c[nH]c3ccccc23)n2cncn2)cc1 (stereo not given) | 10.7
Clc1ccccc1C(Nc1ccccn1)c1c[nH]c2ccccc12 (stereo not given) | 12.2

For record Fc1ccccc1C(Nc1ccccn1)c1c[nH]c2ccccc12 (stereo not given) the listed IC50 is 24.9

* * *

Test system: BGC-823
procedure.text: Cytotoxicity against human BGC823 cells after 72 hrs by MTT assay
Format: functional, cell-based
experimental.conditions: Homo sapiens, BGC-823, 72 h
For each record, write down the corresponding log10 of IC50.
// units: µg/mL (pre-log); metric: IC50; scale: log10

Would you mind giving log10 of IC50 for every compound in the list below?
1. Fc1ccc(C(Nc2ccccn2)c2c[nH]c3ccccc23)cc1 (configuration not stated)
2. FC(F)(F)c1ccc(C(Nc2ccccn2)c2c[nH]c3ccccc23)cc1 (configuration not stated)
3. Fc1ccccc1C(Nc1nc2ccccc2s1)c1c[nH]c2ccccc12 (configuration not stated)
4. Cn1cc(C(Nc2ccccn2)c2ccc(C(F)(F)F)cc2)c2ccccc21 (configuration not stated)
5. Cn1cc(C(Nc2ccccn2)c2ccncc2)c2ccccc21 (configuration not stated)

A.
1. 1.34
2. 1.00
3. 0.91
4. 1.23
5. 1.67

Field: log10 of IC50. Fill in for each record below.
1. Cn1cc(C(Nc2ccccn2)c2ccccc2Cl)c2ccccc21 (configuration not stated)
2. CN(C)Cc1c[nH]c2ccccc12
3. Fc1ccccc1C(Nc1ccccn1)c1c[nH]c2ccccc12 (configuration not stated)
4. Fc1ccc(C(c2c[nH]c3ccccc23)n2cncn2)cc1 (configuration not stated)
5. c1ccc(NC(c2ccccn2)c2c[nH]c3ccccc23)nc1 (configuration not stated)
6. Cn1cc(C(Nc2ccccn2)c2ccccc2F)c2ccccc21 (configuration not stated)
7. O=c1[nH]cc(F)c(=O)[nH]1

A.
1. 1.59
2. 1.80
3. 1.58
4. 1.01
5. 1.67
6. 1.81
7. 0.91

Go through the list and state log10 of IC50 for each entry.
1. Cn1cc(C(Nc2ccccn2)c2ccc(Cl)cc2)c2ccccc21 (configuration not stated)
2. Cn1cc(C(Nc2ccccn2)c2ccc(F)cc2)c2ccccc21 (configuration not stated)
3. Clc1ccccc1C(Nc1nc2ccccc2s1)c1c[nH]c2ccccc12 (configuration not stated)
4. Fc1ccc(C(c2c[nH]c3ccccc23)n2cccn2)cc1 (configuration not stated)
5. c1ccc(C(Nc2ccccn2)c2c[nH]c3ccccc23)cc1 (configuration not stated)

A.
1.49
1.71
0.91
0.76
1.47

For every listed record, write down its log10 of IC50.
1. Clc1ccccc1C(Nc1ccccn1)c1c[nH]c2ccccc12 (configuration not stated)
2. Clc1ccc(C(Nc2ccccn2)c2c[nH]c3ccccc23)cc1 (configuration not stated)

A.
1: 1.36; 2: 1.36

The origin of these recorded values is ChEMBL document CHEMBL2203199.
